EXPERIMENTAL_DETAILS: Volume of distribution in rat at 3 mg/kg, iv
Type: ADME, organism-based
Set-up: dose 3 mg/kg, route intravenous
REPORTED_CONDITIONS: in vivo, read-out: Vdss
OBSERVED_PROPERTY: Vd (L/kg)

1: COc1cnn(C)c(=O)c1-c1ccc(C[C@H](NC(=O)N(C)CC(C)C)C(=O)O)cc1
2: COc1cnn(C)c(=O)c1-c1ccc(C[C@H](NC(=O)c2c(Cl)cccc2Cl)C(=O)O)cc1
3: COc1cnn(CCO)c(=O)c1-c1ccc(C[C@H](NC(=O)OC(C)(C)C)C(=O)O)cc1
Put the compounds in ascending order of Vd. Lab note: final answer is the ordered label list.
3, 1, 2
(3: 0.11 L/kg, 1: 0.19 L/kg, 2: 0.4 L/kg)
